assay: Antiproliferative activity against mouse KS483 cells after 72 hrs by MTT assay; format: cell-based; details: KS483, 72 h
pIC50: −log10 of the molar value.
measuredQuantity: pIC50

• CC(=O)Oc1cccc(N2C(=O)/C(=C/N3N=C(c4ccccc4)CC3c3ccccc3O)SC2=S)c1 (stereo unspecified) = < 5.00

----------
tested on: Jurkat; assay: Antiproliferative activity against human Jurkat cells after 72 hrs by MTT assay; type: functional, cell-based
measuredQuantity: IC50 (µM)

- CC(=O)Oc1cccc(N2C(=O)/C(=C/N3N=C(c4ccccc4)CC3c3ccccc3O)SC2=S)c1 (stereo unspecified): 1.1

----------
test system: MCF7; experiment: Antiproliferative activity against human MCF7 cells after 72 hrs by MTT assay; type: functional, cell-based; details: MCF7, 72 h
pIC50: −log10 of the molar value.
measuredQuantity: pIC50

* CC(=O)Oc1cccc(N2C(=O)/C(=C/N3N=C(c4ccccc4)CC3c3ccccc3O)SC2=S)c1 (stereo unspecified) | 5.08
